Values from ChEMBL document CHEMBL3885881

Organism: Rattus norvegicus
Assay: DrugMatrix - Regimen: Daily Repeat
Type: toxicity, organism-based, Sprague-Dawley
Set-up: regimen Daily Repeat, gender Male, age 6-8 weeks
Details: in vivo, po, 0 mg/kg, 72 h, tissue Plasma, route oral GAVAGE, dose level Control, time 3 day, vehicle 100 % WATER
recorded endpoint: TOTAL PROTEIN (G/DL)
Return type: number; implicit unit G/DL.

See these solved cases before continuing.
CCN(CC)CC#CCOC(=O)C(O)(c1ccccc1)C1CCCCC1 (stereo not drawn) [OXYBUTYNIN]; 5.87
CC(C)(C)NC[C@H](O)COc1nsnc1N1CCOCC1 [TIMOLOL]; 6.08

Okay, next one:
## Input // returns reported TOTAL PROTEIN for input CC[C@H]1OC(=O)[C@H](C)[C@@H](O[C@H]2C[C@@](C)(OC)[C@@H](O)[C@H](C)O2)[C@H](C)[C@@H](O[C@@H]2O[C@H](C)C[C@H](N(C)C)[C@H]2O)[C@](C)(O)C[C@@H](C)CN(C)[C@H](C)[C@@H](O)[C@]1(C)O [AZITHROMYCIN]
## Output 5.65
